Catalogue of molecules with associated EC50
Target: GPR40 (Homo sapiens, UniProt O14842)
Construct: expressed in transfected cells; host or cells: HEK293 cells stably expressing GPR40 (Hygromycin selection)
Sequence (O14842 whole entry): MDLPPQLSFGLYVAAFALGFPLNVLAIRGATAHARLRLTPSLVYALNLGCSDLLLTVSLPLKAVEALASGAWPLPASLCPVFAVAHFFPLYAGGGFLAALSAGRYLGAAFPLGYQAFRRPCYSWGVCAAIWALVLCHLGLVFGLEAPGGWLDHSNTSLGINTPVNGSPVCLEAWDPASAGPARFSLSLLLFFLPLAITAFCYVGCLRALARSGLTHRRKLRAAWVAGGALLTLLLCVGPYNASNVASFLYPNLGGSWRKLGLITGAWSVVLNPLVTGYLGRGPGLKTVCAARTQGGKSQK
Experiment: IP1 accumulation assay in HEK293 cells stably expressing GPR40
Assay type: cell-based
Settings: IP1 accumulation, HEK293 cells stably expressing GPR40, 2 hours at 37° C., % effect relative to AMG-1638; table of Biological Example 1

Consider the following illustrative entries.
{"molecule": "COc1ccc(F)c(-c2ccc(COc3cccc([C@@H](CC(=O)O)C4CC4)c3)cc2CC(C)(C)Cn2cc(CCCCCCCCCCCCCCCCCC(=O)NCCCN(C)CC(=O)NCCN)nn2)c1 [Example 147]", "result": "0.62 nM"}
{"molecule": "COc1ccc(F)c(-c2ccc(COc3cccc([C@@H](CC(=O)O)C4CC4)c3)cc2CC(C)(C)Cc2cn(CCCCCCCCCCCCCCC(=O)NCC[N+](C)(CCC(=O)NCCN)CCC(=O)NCCN)nn2)c1 [Example 102]", "result": "4.05 nM"}
{"molecule": "COc1ccc(F)c(-c2ccc(COc3cccc([C@@H](CC(=O)O)C4CC4)c3)cc2CC(C)(C)Cn2cc(CCCCCCCCCCCCCCCCCC(=O)NCCC[N+](C)(CC(=O)O)CC(=O)O)nn2)c1 [Example 93]", "result": "4.58 nM"}
{"molecule": "COc1ccc(C(=O)N(CC(C)(C)CCn2cc(CCCCC(=O)NCCN(CCC(=O)NCCN)CCC(=O)NCCN)nn2)c2cccc(C)n2)c(N2CCC(COc3cc([C@@H](CC(=O)O)C4CC4)ccn3)CC2)c1 [Example 195]", "result": "> 10000 nM"}
{"molecule": "COc1ccc(C(=O)N(CC(C)(C)CCn2cc(CCCCCCCCCCCCC(=O)NCC[N+](C)(CCC(=O)NCCN)CCC(=O)NCCN)nn2)c2cccc(C)n2)c(N2CCC(COc3cc([C@@H](CC(=O)O)C4CC4)ccn3)CC2)c1 [Example 115]", "result": "0.51 nM"}
{"molecule": "COc1ccc(F)c(-c2ccc(COc3cccc([C@@H](CC(=O)O)C4CC4)c3)cc2CC(C)(C)Cn2cc(CCCCCCCCCCCCCC(=O)NCCCN(CC(=O)NCCN)CC(=O)NCCN)nn2)c1 [Example 152]", "result": "34.4 nM"}

// molecule C[C@H](C(=O)O)[C@H](c1ccc2c(c1)O[C@@H](C1CCN(Cc3cc(-c4cn(CCCCCCCCCCCCCCCCCC(=O)NCC[N+](C)(C)C)nn4)ccc3OC(F)(F)F)CC1)CC2)C1CC1 [Example 35] , assay GPR40 (Homo sapiens, UniProt O14842), EC50 value: 1.18 nM

Values were extracted from patent US20250223281A1.
